assay: NCI Yeast Anticancer Drug Screen. Data for the cln2 rad14 strain (AID 165); settings: S. cerevisiae cln2 rad14 strain, at 50.0 µM, stronger effect = higher value
About 79,000 compounds went through this panel and 15% of them were active in at least one assay; those are over-represented in the sample as a whole.
Tag: condition met if measured growth inhibition is not below 10%, condition not met if it is.

Solved cases (5 shown):
1. CCOc1ccc(C(=O)C=O)cc1 = condition not met
2. Cc1ccc2nc3c(C)c(Cl)c(=O)cc-3sc2c1 = condition not met
3. CCOC(=O)c1c(-c2ccc(OC)cc2)c(C#N)c(=S)n(C2OC(COC(C)=O)C(OC(C)=O)C(OC(C)=O)C2OC(C)=O)c1-c1ccccc1 (configuration not stated) = condition met
4. O=C(O)CNC(=O)NNc1ccccc1 = condition met
5. CC(=O)OC(CCN(C)C)c1ccccc1 (configuration not stated) = condition not met

Now look at this entry.
Prompt line: Quick check, growth inhibition >= 10%? "BrC12CC3CC(CC(C3)C1)C2"
Response line: condition met
